Let's look at some compounds and their measured Cmax.
assay: Cmax in Hartley guinea pig at 2.5 mg/kg, po; type: ADME, organism-based, Cavia porcellus; set-up: dose 2.5 mg/kg, route oral; conditions: in vivo
Just the number please, in µg/mL, no unit attached.

compound	Cmax (µg/mL)
[2H]c1ccc2c(-n3ncc(C(=O)NC(=N)N)c3C3CC3)cccc2n1	0.0233

// query Cmax value for entry N=C(N)NC(=O)c1cnn(-c2cccc3ncccc23)c1C1CC1 [ZONIPORIDE]
0.0265

====

test: AUC in Hartley guinea pig at 5 mg/kg, iv; assay type: ADME, organism-based, Cavia porcellus; parameters: dose 5 mg/kg, route intravenous; conditions: plasma
Let's look at some molecules and their measured AUC.
Just the number please, in ng·h/mL, no unit attached.

molecule	result.units	AUC
CCNC(=O)OC1CCN(c2nncc3cc(OC)c(OC)cc23)CC1 [CARBAZERAN]	ng·h/mL	35.6

Consider now this further molecule.
// query AUC value for entry [2H]c1nnc(N2CCC(OC(=O)NCC)CC2)c2cc(OC)c(OC)cc12
206

====

assay: Half life in Sprague-Dawley rat at 2.5 mg/kg, po; format: ADME, organism-based; parameters: dose 2.5 mg/kg, route oral; conditions: in vivo
Let's look at some molecules and their measured half-life.
Just the number please, in min, no unit attached.

molecule	result.units	reported.result
N=C(N)NC(=O)c1cnn(-c2cccc3ncccc23)c1C1CC1 [ZONIPORIDE]	min	18

Consider now this further molecule.
// query half-life value for entry [2H]c1ccc2c(-n3ncc(C(=O)NC(=N)N)c3C3CC3)cccc2n1
18

====

Let's look at some molecules and their measured AUC.
test: AUC in Hartley guinea pig at 5 mg/kg, po; assay type: ADME, organism-based, Cavia porcellus; design: dose 5 mg/kg, route oral; conditions: plasma
Just the number please, in ng·h/mL, no unit attached.

molecule	reported.result
[2H]c1nnc(N2CCC(OC(=O)NCC)CC2)c2cc(OC)c(OC)cc12	96

Consider now this further molecule.
// query AUC value for entry CCNC(=O)OC1CCN(c2nncc3cc(OC)c(OC)cc23)CC1 [CARBAZERAN]
4.25

====

assay: Half life in Hartley guinea pig at 2.5 mg/kg, po; assay type: ADME, organism-based, Cavia porcellus; parameters: dose 2.5 mg/kg, route oral; conditions: in vivo
parameter: half-life (min)
Just the number please, in min, no unit attached.

compound	half-life [min]
N=C(N)NC(=O)c1cnn(-c2cccc3ncccc23)c1C1CC1 [ZONIPORIDE]	30

// query half-life value for entry [2H]c1ccc2c(-n3ncc(C(=O)NC(=N)N)c3C3CC3)cccc2n1
30

====

Let's look at some compounds and their measured half-life.
experiment: Half life in Sprague-Dawley rat at 1 mg/kg, iv; format: ADME, organism-based; set-up: dose 1 mg/kg, route intravenous; conditions: in vivo
Just the number please, in min, no unit attached.

compound	reported.result
N=C(N)NC(=O)c1cnn(-c2cccc3ncccc23)c1C1CC1 [ZONIPORIDE]	24

Consider now this further compound.
// query half-life value for entry [2H]c1ccc2c(-n3ncc(C(=O)NC(=N)N)c3C3CC3)cccc2n1
30

Entry source: ChEMBL document CHEMBL3525996
